# IC50, inhibition of KU812-IL5 production promoted by oxidized IL33 annotations
# EXPERIMENTAL_TARGET: T1, ST2 on the effector cells (KU812, KU812/NF-κB-1#, HUVEC, HMC-1) (human, UniProt Q01638 19-556)
# T1 sequence (looked up): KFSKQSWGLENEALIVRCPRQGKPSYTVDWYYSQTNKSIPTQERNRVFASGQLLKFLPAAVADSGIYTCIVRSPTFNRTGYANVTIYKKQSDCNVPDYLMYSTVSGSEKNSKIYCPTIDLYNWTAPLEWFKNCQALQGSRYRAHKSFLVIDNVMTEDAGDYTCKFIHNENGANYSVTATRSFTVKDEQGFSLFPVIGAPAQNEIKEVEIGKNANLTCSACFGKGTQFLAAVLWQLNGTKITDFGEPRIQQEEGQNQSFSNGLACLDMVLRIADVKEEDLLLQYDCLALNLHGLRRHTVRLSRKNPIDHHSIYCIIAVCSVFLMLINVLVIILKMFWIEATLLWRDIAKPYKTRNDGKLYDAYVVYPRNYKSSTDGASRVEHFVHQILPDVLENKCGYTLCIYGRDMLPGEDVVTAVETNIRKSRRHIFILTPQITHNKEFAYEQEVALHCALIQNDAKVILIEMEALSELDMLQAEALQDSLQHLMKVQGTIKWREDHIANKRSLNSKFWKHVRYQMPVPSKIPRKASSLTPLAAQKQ
# ASSAY_PROCEDURE: cell-based or functional assay
Form entry: value (µg/mL) — number only.

Some solved cases for reference:
5888-153-H3L1 (antibody, human IgG4 S228P, kappa, V domains shown, Humanized antibody) VH: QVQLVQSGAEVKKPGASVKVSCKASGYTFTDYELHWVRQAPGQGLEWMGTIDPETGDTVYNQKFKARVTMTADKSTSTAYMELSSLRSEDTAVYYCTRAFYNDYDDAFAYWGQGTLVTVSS VL: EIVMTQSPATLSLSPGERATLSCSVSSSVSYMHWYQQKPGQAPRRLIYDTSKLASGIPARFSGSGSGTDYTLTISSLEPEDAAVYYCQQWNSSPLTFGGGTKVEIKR | 0.0136
5888-379-H2L1 (antibody, human IgG4 S228P, kappa, V domains shown, Humanized antibody) VH: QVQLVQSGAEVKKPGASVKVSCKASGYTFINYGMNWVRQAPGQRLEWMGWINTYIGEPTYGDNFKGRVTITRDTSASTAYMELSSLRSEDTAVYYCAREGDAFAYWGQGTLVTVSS VL: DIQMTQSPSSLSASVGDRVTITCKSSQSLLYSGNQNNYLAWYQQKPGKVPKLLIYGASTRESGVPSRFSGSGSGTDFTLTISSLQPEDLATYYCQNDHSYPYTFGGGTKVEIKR | 0.0228
5888-153-H3L2 (antibody, human IgG4 S228P, kappa, V domains shown, Humanized antibody) VH: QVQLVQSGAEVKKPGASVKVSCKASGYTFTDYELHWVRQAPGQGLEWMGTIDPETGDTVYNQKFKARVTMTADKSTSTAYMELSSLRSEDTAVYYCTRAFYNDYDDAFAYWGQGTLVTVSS VL: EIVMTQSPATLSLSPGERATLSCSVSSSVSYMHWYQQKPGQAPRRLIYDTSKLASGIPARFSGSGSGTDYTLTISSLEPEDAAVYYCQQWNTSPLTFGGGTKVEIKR | 0.0173
5886-156-H1L0 (antibody, human IgG4 S228P, kappa, V domains shown, Humanized antibody expressed in CHO-K1, purified by protein A) VH: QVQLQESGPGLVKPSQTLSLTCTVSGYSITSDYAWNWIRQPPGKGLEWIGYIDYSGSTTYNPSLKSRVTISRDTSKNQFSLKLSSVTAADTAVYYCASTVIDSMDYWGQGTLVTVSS VL: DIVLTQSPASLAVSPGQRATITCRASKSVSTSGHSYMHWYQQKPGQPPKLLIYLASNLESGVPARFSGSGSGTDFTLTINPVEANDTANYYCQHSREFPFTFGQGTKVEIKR | 0.0285

Switching to the query record.
Task: For the binder shown here, 5888-116-H0L1 (antibody, human IgG4 S228P, kappa, V domains shown, Humanized antibody) VH: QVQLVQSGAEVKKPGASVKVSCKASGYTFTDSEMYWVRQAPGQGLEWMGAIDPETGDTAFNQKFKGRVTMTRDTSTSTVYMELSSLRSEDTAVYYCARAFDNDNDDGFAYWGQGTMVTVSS VL: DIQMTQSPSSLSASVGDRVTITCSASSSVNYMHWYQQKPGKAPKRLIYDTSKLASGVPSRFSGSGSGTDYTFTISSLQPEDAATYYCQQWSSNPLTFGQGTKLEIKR , give the reported IC50, inhibition of KU812-IL5 production promoted by oxidized IL33.
Result: 0.0036
